- test.description: Multiple component PK study in rat plasma after p.o. GDDP (HPLC-MS)
- settings: GDDP 0.8 g/kg p.o.; 5, 10, 15, 30, 45, 60, and 120 min; LOQ 1.0–1.4 ng/mL
value.kind: determination in rat plasma at the planned successive PK time points

>>> result("CC(C)=CCC[C@](C)(O[C@@H]1O[C@H](CO)[C@@H](O)[C@H](O)[C@H]1O)[C@H]1CC[C@]2(C)[C@@H]1[C@H](O)C[C@@H]1[C@@]3(C)CC[C@H](O[C@@H]4O[C@H](CO)[C@@H](O)[C@H](O)[C@H]4O[C@@H]4O[C@H](CO)[C@@H](O)[C@H](O)[C@H]4O)C(C)(C)[C@@H]3CC[C@]12C [Rd, ginsenoside Rd]")
"could be determined"
>>> result("CC(C)=CCC[C@](C)(O[C@@H]1O[C@H](CO[C@@H]2O[C@H](CO)[C@@H](O)[C@H](O)[C@H]2O)[C@@H](O)[C@H](O)[C@H]1O)[C@H]1CC[C@]2(C)[C@@H]1[C@H](O)C[C@@H]1[C@@]3(C)CC[C@H](O[C@@H]4O[C@H](CO)[C@@H](O)[C@H](O)[C@H]4O[C@@H]4O[C@H](CO)[C@@H](O)[C@H](O)[C@H]4O)C(C)(C)[C@@H]3CC[C@]12C [Rb1, ginsenoside Rb1]")
"could be determined"
>>> result("CC(C)=CCC[C@](C)(O[C@@H]1O[C@H](CO)[C@@H](O)[C@H](O)[C@H]1O)[C@H]1CC[C@]2(C)[C@@H]1[C@H](O)C[C@@H]1[C@@]3(C)CC[C@H](O)C(C)(C)[C@@H]3[C@@H](O[C@@H]3O[C@H](CO)[C@@H](O)[C@H](O)[C@H]3O[C@@H]3OC[C@@H](O)[C@H](O)[C@H]3O)C[C@]12C [R1, notoginsenoside R1]")
"could be determined"

Attribution: paper PMC6308302
